molecular target: IDO1 enzyme (Homo sapiens); test: Determination of biochemical activity of IDO1 enzyme (absorbance at 320 nm); conditions: room temperature, 3 hours
Sequence (P14902 whole entry): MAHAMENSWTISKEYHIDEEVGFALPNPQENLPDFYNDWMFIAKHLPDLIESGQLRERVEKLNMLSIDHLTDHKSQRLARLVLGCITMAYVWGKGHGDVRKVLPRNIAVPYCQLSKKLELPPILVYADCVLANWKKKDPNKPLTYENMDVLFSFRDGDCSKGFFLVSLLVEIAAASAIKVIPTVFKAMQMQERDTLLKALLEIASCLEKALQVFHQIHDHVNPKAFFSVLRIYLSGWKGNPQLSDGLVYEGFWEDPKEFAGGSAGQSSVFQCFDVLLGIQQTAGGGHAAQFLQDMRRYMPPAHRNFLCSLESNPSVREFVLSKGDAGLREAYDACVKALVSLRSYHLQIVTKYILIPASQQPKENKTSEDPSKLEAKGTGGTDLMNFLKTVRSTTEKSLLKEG
quantity: IC50

O/N=C(\Nc1ccc(F)c(Br)c1)c1conc1NC(=S)NC1CCCCC1 [Embodiment 135]    0.1 to 1 µM
N=C(Nc1nonc1/C(=N/O)Nc1ccc(F)c(Br)c1)NC1CCNCC1 [Embodiment 148]    < 0.001 µM
O=C(Nc1nonc1/C(=N/O)Nc1ccc(F)c(Br)c1)NC1CCOC1 (centres unmarked) [Embodiment 47]    0.1 to 1 µM
CS(=O)(=O)NCCNC(=O)Nc1cocc1/C(=N/O)Nc1ccc(F)c(Br)c1 [Embodiment 72]    0.1 to 1 µM

Entry COc1ccc(NC(=O)Nc2nonc2/C(=N/O)Nc2ccc(F)c(Br)c2)cc1C(F)(F)F [Embodiment 21] , IC50 reported as 0.1 to 1 µM

Entry O/N=C(\Nc1ccc(F)c(Br)c1)c1nonc1NC(=S)NC1CCNCC1 [Embodiment 124] , IC50 reported as < 0.001 µM

Entry O=C(Nc1nonc1/C(=N/O)Nc1ccc(F)cc1)NC1CCCCC1 [Embodiment 52] , IC50 reported as 0.1 to 1 µM

Entry O=C(Nc1nonc1/C(=N/O)Nc1ccc(F)c(Br)c1)Nc1csc2ccccc12 [Embodiment 39] , IC50 reported as 0.1 to 1 µM
